Hey, just so you know, these numbers are from patent US20160031998A1.

# target: T1, soluble hG-CSFR: amino acids 25-335 of Homo sapiens G-CSFR with mutations C78A, C163S and C228S and a … (Homo sapiens, UniProt Q99062 25-335)
# T1 chain: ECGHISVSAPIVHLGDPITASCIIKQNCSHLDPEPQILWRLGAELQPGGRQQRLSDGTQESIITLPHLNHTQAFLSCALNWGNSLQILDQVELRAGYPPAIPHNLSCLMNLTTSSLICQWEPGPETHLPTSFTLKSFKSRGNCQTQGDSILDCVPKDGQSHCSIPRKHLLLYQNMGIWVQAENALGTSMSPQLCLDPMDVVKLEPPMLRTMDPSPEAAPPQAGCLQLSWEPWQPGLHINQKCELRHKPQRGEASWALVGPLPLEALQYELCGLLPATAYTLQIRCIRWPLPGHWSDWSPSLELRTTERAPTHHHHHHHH
# protocolText: SPR (Biacore), mAb captured by anti-human IgG, soluble hG-CSFR injected
Quick reference for Kd among some binders

binder	resultUnits	Kd
C1.2G-999 (antibody, human IgG4, V domains shown, also called antibody 999) VH: EVQLLESGGGLVQPGGSLRLSCAASGFTFSLYWMGWVRQAPGKGLEWVSSISSSGGVTPYADSVKGRFTISRDNSKNTLYLQMNSLRAEDTAVYYCAKLGELGMFHKWGQGTLVTVSS VL: DIQMTQSPSSLSASVGDRVTITCRASQGISSYLNWYQQKPGKAPKLLIYYASNLQNGVPSRFSGSGSGTDFTLTISSLQPEDFATYYCQQSWEYAMFFGGGTKVEIK	nM	0.356
C1.2G-75 (antibody, human IgG4, V domains shown, HCDR3 wt (VH of C1.2G); also called antibody 75) VH: EVQLLESGGGLVQPGGSLRLSCAASGFTFSLYWMGWVRQAPGKGLEWVSSISSSGGVTPYADSVKGRFTISRDNSKNTLYLQMNSLRAEDTAVYYCAKLGELGWFDPWGQGTLVTVSS VL: DIQMTQSPSSLSASVGDRVTITCRASQGISSYLNWYQQKPGKAPKLLIYYASNLQNGVPSRFSGSGSGTDFTLTISSLQPEDFATYYCEESMNYPLTFGGGTKVEIK	nM	0.211
C1.2G-97 (antibody, human IgG4, V domains shown, HCDR3 wt (VH of C1.2G); also called antibody 97) VH: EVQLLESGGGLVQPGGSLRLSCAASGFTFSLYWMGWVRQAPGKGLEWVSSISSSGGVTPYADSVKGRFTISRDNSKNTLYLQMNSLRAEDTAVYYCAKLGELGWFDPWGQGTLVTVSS VL: DIQMTQSPSSLSASVGDRVTITCRASQGISSYLNWYQQKPGKAPKLLIYYASNLQNGVPSRFSGSGSGTDFTLTISSLQPEDFATYYCQQSFMYPLYFGGGTKVEIK	nM	0.0906
C1.2G-969 (antibody, human IgG4, V domains shown, also called antibody 969) VH: EVQLLESGGGLVQPGGSLRLSCAASGFTFSLYWMGWVRQAPGKGLEWVSSISSSGGVTPYADSVKGRFTISRDNSKNTLYLQMNSLRAEDTAVYYCAKLGELGQYQFWGQGTLVTVSS VL: DIQMTQSPSSLSASVGDRVTITCRASQGISSYLNWYQQKPGKAPKLLIYYASNLQNGVPSRFSGSGSGTDFTLTISSLQPEDFATYYCQQSFQYAQHFGGGTKVEIK	nM	0.181
C1.2G-814 (antibody, human IgG4, V domains shown, HCDR3 wt (VH of C1.2G); also called antibody 814) VH: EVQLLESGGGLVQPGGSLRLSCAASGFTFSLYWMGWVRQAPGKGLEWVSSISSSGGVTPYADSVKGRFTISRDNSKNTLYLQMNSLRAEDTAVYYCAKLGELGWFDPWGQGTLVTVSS VL: DIQMTQSPSSLSASVGDRVTITCRASQGISSYLNWYQQKPGKAPKLLIYYASNLQNGVPSRFSGSGSGTDFTLTISSLQPEDFATYYCSQSMEYPLTFGGGTKVEIK	nM	0.221
